Readings of EC50 for the listed compounds
- Experimental system: hFXR (Homo sapiens)
- Assay procedure: In Vitro FXR Assay (TK), luciferase reporter in transfected CV-1 cells
- Cond: CV-1 cells transfected with hFXR, hRXR, TK-ECRE-luc; 18 hrs incubation; luminescence; compounds with a maximum efficacy of <25% of the Fexaramine control classified as '+'

Examples from the recorded data:
• CN(C)c1ccc(-c2ccc(CN(C(=O)C3CCCCC3)c3cccc(/C=C/c4ccncc4)c3)cc2)cc1 [Compound 28] = 3 to 10 µM
• CN(C)C(=O)/C=C/c1cccc(N(Cc2ccc(-c3ccc(N(C)C)cc3)cc2)C(=O)C2CCCCC2)c1 [Compound 13] = ≤ 3 µM

Prompt: What measured EC50 goes with CN(C)c1ccc(-c2ccc(CN(C(=O)C3CCCCC3)c3cccc(-c4ccccc4)c3)cc2)cc1 [Compound 18] ?
Completion: 3 to 10 µM

Prompt: For the compound CN(C)c1ccc(-c2ccc(CN(C(=O)C3CCCCC3)c3cccc(-c4cccnc4)c3)cc2)cc1 [Compound 23] , what EC50 is on record?
Completion: 3 to 10 µM

Prompt: If you can, please state the reported EC50 value of COCC1CN(c2cccc(N(C[C@H]3CC[C@H](c4ccc(OC)c(C)c4)CC3)C(=O)[C@H]3CC[C@H](O)CC3)c2)C1 [Compound 46] .
Completion: ≤ 3 µM

Prompt: Using the record for CCc1cncc(-c2cccc(N(Cc3ccc(-c4ccc(N(C)C)cc4)cc3)C(=O)C3CCCCC3)c2)c1 [Compound 33] , report its EC50.
Completion: 3 to 10 µM

###

- Experimental system: hFXR (Homo sapiens, UniProt Q96RI1)
- Assay procedure: In Vitro FXR Assay (TK), luciferase reporter in transfected CV-1 cells
- Cond: CV-1 cells transfected with hFXR, hRXR, TK-ECRE-luc; 18 hrs incubation; luminescence; compounds with a maximum efficacy of <25% of the Fexaramine control classified as '+'
A collection of compounds and their measured EC50

- COc1cc(-c2cccc(N(Cc3ccc(-c4ccc(N(C)C)cc4)cc3)C(=O)C3CCCCC3)c2)ncn1: ≤ 3 µM
- COc1ccc([C@H]2CC[C@H](CN(c3cccc(N4CCC(OC)C4)c3)C(=O)[C@H]3CC[C@H](O)CC3)CC2)cc1C (stereo partly shown): 3 to 10 µM
- COc1cc(-c2cccc(N(Cc3ccc(-c4ccc(N(C)C)cc4)cc3)C(=O)C3CCCCC3)c2)sn1: ≤ 3 µM

Next compound, please.
Prompt: // EC50 lookup, key: CN(C)c1ccc(-c2ccc(CN(C(=O)C3CCCCC3)c3cccc(/C=C/c4ccccn4)c3)cc2)cc1
Completion: ≤ 3 µM

###

Recorded pEC50 values for a group of molecules are listed next.
- Experimental system: hFXR (Homo sapiens, UniProt Q96RI1)
- Sequence (Q96RI1 1-486): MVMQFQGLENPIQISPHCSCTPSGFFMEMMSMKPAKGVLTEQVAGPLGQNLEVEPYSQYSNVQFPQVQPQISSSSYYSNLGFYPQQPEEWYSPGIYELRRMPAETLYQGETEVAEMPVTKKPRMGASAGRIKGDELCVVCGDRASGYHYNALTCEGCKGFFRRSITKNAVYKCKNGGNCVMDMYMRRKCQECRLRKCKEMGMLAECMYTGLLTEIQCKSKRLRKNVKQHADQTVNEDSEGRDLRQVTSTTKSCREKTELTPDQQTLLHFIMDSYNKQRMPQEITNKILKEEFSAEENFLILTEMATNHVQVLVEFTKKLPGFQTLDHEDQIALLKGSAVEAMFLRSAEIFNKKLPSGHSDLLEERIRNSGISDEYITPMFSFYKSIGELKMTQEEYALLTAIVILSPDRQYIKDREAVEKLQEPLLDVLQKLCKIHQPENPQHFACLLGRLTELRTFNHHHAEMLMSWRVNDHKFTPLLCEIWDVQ
- Sequence (P19793 1-462 partner): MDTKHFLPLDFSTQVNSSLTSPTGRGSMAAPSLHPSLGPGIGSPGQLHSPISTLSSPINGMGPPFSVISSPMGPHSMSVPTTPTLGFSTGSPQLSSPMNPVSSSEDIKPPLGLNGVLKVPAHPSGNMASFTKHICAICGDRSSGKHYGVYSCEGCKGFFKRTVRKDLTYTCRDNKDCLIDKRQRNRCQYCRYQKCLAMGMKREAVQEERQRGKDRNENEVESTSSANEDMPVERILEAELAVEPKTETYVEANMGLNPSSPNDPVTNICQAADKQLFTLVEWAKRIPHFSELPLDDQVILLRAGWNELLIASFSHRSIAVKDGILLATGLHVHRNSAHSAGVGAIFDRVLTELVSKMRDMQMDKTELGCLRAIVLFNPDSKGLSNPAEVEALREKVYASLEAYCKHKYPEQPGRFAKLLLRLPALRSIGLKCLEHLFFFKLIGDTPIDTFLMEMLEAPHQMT
- Assay procedure: In Vitro FXR Assay (TK), luciferase reporter in transfected CV-1 cells
- Cond: CV-1 cells transfected with hFXR, hRXR, TK-ECRE-luc; 18 hrs incubation; luminescence; compounds with a maximum efficacy of <25% of the Fexaramine control classified as '+'
pEC50: −log10 of the molar value.

* C/C=C/c1cccc(N(Cc2ccc(-c3ccc(N(C)C)cc3)cc2)C(=O)C2CCCCC2)c1 | 5.00 to 5.52
* COc1ccc(-c2cccc(N(Cc3ccc(-c4ccc(N(C)C)cc4)cc3)C(=O)C3CCCCC3)c2)cc1 | ≥ 5.52
* Cc1cncc(-c2cccc(N(Cc3ccc(-c4ccc(N(C)C)cc4)cc3)C(=O)C3CCCCC3)c2)c1 | 5.00 to 5.52
* CN(C)c1ccc(-c2ccc(CN(C(=O)C3CCCCC3)c3cccc(CCc4ncco4)c3)cc2)cc1 | ≥ 5.52
* COc1ncc(-c2cccc(N(Cc3ccc(-c4ccc(N(C)C)cc4)cc3)C(=O)C3CCCCC3)c2)s1 | ≥ 5.52
* COc1ccc([C@H]2CC[C@H](CN(c3cccc(N4CCC(OC)CC4)c3)C(=O)[C@H]3CC[C@H](O)CC3)CC2)cc1C | ≥ 5.52
* CN(C)c1ccc(-c2ccc(CN(C(=O)C3CCCCC3)c3cccc(-c4cc(=O)n(C)s4)c3)cc2)cc1 | ≥ 5.52
* COCCNc1cccc(N(Cc2ccc(-c3ccc(N(C)C)cc3)cc2)C(=O)C2CCCCC2)c1 | 5.00 to 5.52
* O=C(C1CCCCC1)N(Cc1ccc(-c2ccc(F)cc2)cc1)c1cccc(-c2ccccc2)c1 | ≥ 5.52
* COc1cncc(-c2cccc(N(Cc3ccc(-c4ccc(N(C)C)cc4)cc3)C(=O)C3CCCCC3)c2)c1 | ≥ 5.52

Prompt: Request - read-out pEC50 | tested on hFXR (Homo sapiens, UniProt Q96RI1) | molecule COc1ccc([C@H]2CC[C@H](CN(c3cccc(N4CC(OC)C4)c3)C(=O)[C@H]3CC[C@H](O)CC3)CC2)cc1C
Completion: ≥ 5.52
